B1: EEHEE_rd4_0003 (parent)
chain: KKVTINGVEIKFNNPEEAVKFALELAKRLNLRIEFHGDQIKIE

# Variants of: B1
# procedure.details: folding stability dG (cDNA display proteolysis); higher = more stable
# cond: PBS, room temperature
experimental.readout: folding stability dG (kcal/mol)
One number for each entry, in kcal/mol.

These solved cases illustrate the format of a correct answer.
>  <variant>
I5D

>  <obs.value>
1.54

$$$$
>  <variant>
Q39L

>  <obs.value>
2.95

$$$$
>  <variant>
E34P

>  <obs.value>
1.48

$$$$

Dear reader, for each entry below, please note its folding stability dG.
1. L31G
2. N6H
3. K2D
4. K2Q
5. L25I
6. E16M

[2.42, 2.45, 1.93, 2.36, 2.53, 2.66]

Dear reader, for each entry below, please note its folding stability dG.
1. G7M
2. F12C
3. I5V
4. F35D

1. 2.2
2. 3.25
3. 2.47
4. 1.5
